target: Vascular endothelial growth factor receptor 1 (Homo sapiens, UniProt P17948); assay: Inhibition of VEGF-induced VEGFR1 phosphorylation in human A498 cells overexpressing Flt-1 pretreated for 60 mins prior to VEGF addition measured after 10 mins by phosphotyrosine ELISA cytoblot analysis
Sequence (P17948 whole entry): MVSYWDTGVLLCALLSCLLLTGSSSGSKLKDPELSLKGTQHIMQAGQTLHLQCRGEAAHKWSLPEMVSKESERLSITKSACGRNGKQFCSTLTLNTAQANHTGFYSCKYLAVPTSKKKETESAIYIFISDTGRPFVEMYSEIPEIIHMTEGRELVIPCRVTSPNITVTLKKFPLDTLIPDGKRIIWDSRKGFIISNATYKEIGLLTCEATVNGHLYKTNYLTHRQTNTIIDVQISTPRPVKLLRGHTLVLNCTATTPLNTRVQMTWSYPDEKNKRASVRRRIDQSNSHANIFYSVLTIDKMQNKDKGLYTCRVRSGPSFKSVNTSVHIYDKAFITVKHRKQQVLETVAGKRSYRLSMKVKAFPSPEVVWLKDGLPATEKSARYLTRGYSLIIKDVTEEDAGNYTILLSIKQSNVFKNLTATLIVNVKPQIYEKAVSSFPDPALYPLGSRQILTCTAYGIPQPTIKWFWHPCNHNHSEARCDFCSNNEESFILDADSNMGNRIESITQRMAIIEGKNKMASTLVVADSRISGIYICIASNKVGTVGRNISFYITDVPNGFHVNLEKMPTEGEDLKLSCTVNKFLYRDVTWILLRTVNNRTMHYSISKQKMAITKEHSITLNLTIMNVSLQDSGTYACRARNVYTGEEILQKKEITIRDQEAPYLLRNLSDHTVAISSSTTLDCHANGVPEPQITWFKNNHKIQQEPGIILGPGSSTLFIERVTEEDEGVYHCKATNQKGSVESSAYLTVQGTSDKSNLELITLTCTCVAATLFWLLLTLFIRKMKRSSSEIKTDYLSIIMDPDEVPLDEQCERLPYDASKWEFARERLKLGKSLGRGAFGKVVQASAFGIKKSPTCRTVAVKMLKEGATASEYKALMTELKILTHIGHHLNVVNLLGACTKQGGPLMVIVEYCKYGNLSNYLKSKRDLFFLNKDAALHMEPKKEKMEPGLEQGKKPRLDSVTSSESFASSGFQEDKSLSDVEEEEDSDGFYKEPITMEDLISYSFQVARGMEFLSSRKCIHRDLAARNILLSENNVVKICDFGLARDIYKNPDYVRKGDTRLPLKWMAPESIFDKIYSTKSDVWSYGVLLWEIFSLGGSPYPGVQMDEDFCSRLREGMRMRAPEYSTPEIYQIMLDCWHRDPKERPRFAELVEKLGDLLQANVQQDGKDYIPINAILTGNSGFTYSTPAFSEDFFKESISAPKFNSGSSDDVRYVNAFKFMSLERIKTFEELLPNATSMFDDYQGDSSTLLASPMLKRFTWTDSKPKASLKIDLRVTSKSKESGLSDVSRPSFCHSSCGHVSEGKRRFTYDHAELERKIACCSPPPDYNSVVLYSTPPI
Endpoint label: pIC50
Reminder that pIC50 means the negative base-10 logarithm of the concentration expressed in mol/L.

C#Cc1cccc(Nc2nc(N)nc3[nH]c(CCc4ccccn4)cc23)c1    3.99
Nc1nc(Nc2ccc(F)c(Br)c2)c2cc(CCc3ccccn3)[nH]c2n1    4.03

Returns the measured pIC50 for the input compound. Input: `CC(C)(C)C(=O)Nc1nc(Nc2ccc(F)c(C(F)(F)F)c2)c2cc(CCc3ccccn3)[nH]c2n1`
3.72

* * *

biological target: Epidermal growth factor receptor (Homo sapiens, UniProt P00533);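 further: EGF-stimulated EGFR phosphorylation in human A431 cells, compound preincubation 60 min before EGF, phosphotyrosine ELISA cytoblot read 10 min after stimulation, inhibition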
Sequence (P00533 whole entry): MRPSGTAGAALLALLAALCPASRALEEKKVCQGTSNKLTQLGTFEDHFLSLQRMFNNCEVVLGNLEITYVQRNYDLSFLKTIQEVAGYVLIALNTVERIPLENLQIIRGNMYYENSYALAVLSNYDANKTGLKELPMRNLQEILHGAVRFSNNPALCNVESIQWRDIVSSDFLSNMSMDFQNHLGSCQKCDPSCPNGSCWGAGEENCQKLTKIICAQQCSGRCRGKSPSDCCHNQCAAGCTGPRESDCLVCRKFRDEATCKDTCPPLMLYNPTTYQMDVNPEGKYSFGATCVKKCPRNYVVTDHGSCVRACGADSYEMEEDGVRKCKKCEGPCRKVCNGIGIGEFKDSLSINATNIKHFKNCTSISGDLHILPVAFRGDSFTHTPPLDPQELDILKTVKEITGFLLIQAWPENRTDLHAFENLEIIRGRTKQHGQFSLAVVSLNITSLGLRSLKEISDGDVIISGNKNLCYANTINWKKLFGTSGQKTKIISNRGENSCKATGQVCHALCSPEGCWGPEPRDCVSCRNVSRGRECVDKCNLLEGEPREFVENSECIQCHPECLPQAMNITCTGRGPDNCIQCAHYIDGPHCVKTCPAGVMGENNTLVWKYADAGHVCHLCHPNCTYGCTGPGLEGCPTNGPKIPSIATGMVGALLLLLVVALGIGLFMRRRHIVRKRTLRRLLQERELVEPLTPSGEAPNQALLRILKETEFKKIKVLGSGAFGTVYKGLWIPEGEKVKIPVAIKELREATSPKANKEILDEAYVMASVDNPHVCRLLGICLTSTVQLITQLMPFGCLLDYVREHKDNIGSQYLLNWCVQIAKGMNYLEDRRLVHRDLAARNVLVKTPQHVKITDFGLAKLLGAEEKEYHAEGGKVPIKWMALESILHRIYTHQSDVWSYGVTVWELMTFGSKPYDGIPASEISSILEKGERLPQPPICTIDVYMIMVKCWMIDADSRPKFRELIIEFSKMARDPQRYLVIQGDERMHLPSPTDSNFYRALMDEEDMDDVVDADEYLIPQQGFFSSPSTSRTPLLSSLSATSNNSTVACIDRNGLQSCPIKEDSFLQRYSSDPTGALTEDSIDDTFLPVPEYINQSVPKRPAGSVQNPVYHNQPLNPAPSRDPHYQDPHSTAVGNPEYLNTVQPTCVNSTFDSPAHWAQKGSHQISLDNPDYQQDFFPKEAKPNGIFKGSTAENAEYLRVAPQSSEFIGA
Reported pIC50 values for a set of compounds
pIC50 here: minus log base 10 of the concentration, concentration in moles per litre.

Answered examples (5):
Nc1nc(Nc2ccc(F)c(C(F)(F)F)c2)c2cc(CCc3ccccn3)[nH]c2n1    4.81
CC(C)(C)C(=O)Nc1nc(Nc2ccc(F)c(Br)c2)c2cc(CCc3ccccn3)[nH]c2n1    5.27
CC(C)(C)C(=O)Nc1nc(Nc2cccc(C(F)(F)F)c2)c2cc(CCc3ccccn3)[nH]c2n1    4.89
Nc1nc(Nc2cccc(C(F)(F)F)c2)c2cc(CCc3ccccn3)[nH]c2n1    4.71
Nc1nc(Nc2ccc(F)c(Cl)c2)c2cc(CCc3ccccn3)[nH]c2n1    3.96

Quick one: pIC50 for `CC(C)(C)C(=O)Nc1nc(Nc2ccc(F)c(C(F)(F)F)c2)c2cc(CCc3ccccn3)[nH]c2n1` ?
4.57

Item `Nc1nc(Nc2ccc(F)c(Br)c2)c2cc(CCc3ccccn3)[nH]c2n1` has what recorded pIC50?
4.07

What does the data say about its pIC50? Entry: `C#Cc1cccc(Nc2nc(N)nc3[nH]c(CCc4ccccn4)cc23)c1`
4.70

Using the record for `CC(C)(C)C(=O)Nc1nc(Nc2ccc(F)c(Cl)c2)c2cc(CCc3ccccn3)[nH]c2n1` , report its pIC50.
4.79

* * *

molecular target: Platelet-derived growth factor receptor beta (Homo sapiens, UniProt P09619); assay: Inhibition of PDGF-BB-induced PDGFR beta phosphorylation in human SF539 cells overexpressing PDGFR beta pretreated for 60 mins prior to PDGF-BB addition measured after 10 mins by phosphotyrosine ELISA cytoblot analysis
Sequence (P09619 whole entry): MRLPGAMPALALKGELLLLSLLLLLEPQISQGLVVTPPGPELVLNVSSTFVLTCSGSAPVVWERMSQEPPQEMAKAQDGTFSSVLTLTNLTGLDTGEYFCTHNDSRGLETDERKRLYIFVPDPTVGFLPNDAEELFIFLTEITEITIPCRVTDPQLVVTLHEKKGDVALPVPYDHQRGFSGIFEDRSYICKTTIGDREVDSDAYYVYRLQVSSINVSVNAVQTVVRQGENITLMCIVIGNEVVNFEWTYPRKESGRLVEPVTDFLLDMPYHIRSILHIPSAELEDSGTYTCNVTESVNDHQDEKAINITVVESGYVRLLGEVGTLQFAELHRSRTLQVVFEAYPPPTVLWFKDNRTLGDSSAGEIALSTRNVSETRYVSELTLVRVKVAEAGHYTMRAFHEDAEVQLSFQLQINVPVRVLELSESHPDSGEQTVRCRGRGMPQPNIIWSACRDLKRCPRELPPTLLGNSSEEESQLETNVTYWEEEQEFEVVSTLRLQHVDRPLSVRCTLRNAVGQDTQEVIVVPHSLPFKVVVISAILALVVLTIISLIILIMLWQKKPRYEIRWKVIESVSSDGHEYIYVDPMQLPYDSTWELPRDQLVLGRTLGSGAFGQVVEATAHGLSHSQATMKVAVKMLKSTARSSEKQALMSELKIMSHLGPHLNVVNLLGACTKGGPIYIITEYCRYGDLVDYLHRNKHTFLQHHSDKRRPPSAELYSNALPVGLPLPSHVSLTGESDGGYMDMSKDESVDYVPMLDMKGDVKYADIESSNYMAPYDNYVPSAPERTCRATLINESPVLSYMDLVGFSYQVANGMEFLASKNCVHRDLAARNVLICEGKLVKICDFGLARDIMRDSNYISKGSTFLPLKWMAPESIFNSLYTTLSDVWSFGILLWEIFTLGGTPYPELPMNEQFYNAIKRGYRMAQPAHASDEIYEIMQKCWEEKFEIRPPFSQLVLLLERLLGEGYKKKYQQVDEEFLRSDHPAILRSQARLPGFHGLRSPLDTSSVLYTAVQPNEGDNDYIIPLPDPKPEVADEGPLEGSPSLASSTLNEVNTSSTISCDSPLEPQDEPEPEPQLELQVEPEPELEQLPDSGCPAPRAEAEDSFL
pIC50: −log10 of the molar value.
Measured pIC50, listed per entry.

Some molecules with known pIC50 results, for comparison:
Nc1nc(Nc2ccc(F)c(Cl)c2)c2cc(CCc3ccccn3)[nH]c2n1    < 3.30
CC(C)(C)C(=O)Nc1nc(Nc2ccc(F)c(Br)c2)c2cc(CCc3ccccn3)[nH]c2n1    4.05
CC(C)(C)C(=O)Nc1nc(Nc2ccc(F)c(C(F)(F)F)c2)c2cc(CCc3ccccn3)[nH]c2n1    < 3.30
CC(C)(C)C(=O)Nc1nc(Nc2cccc(C(F)(F)F)c2)c2cc(CCc3ccccn3)[nH]c2n1    < 3.30
C#Cc1cccc(Nc2nc(N)nc3[nH]c(CCc4ccccn4)cc23)c1    3.48
Nc1nc(Nc2cccc(Br)c2)c2cc(CCc3ccccn3)[nH]c2n1    4.87

Lab request: please report pIC50 under test system Platelet-derived growth factor receptor beta (Homo sapiens, UniProt P09619) for `Nc1nc(Nc2ccc(F)c(Br)c2)c2cc(CCc3ccccn3)[nH]c2n1`
< 3.30

Could you share what pIC50 was measured for `CC(C)(C)C(=O)Nc1nc(Nc2ccc(F)c(Cl)c2)c2cc(CCc3ccccn3)[nH]c2n1` , tested on Platelet-derived growth factor receptor beta (Homo sapiens, UniProt P09619)?
< 3.30

Param readout = pIC50; param system = Platelet-derived growth factor receptor beta (Homo sapiens, UniProt P09619); param query = `Nc1nc(Nc2cccc(C(F)(F)F)c2)c2cc(CCc3ccccn3)[nH]c2n1` ; response: value
< 3.30

Checklist item: pIC50 tested on Platelet-derived growth factor receptor beta (Homo sapiens, UniProt P09619), entry `Nc1nc(Nc2ccc(F)c(C(F)(F)F)c2)c2cc(CCc3ccccn3)[nH]c2n1` , value?
< 3.30

Item `C#Cc1cccc(Nc2nc(NC(=O)C(C)(C)C)nc3[nH]c(CCc4ccccn4)cc23)c1` with Platelet-derived growth factor receptor beta (Homo sapiens, UniProt P09619) - pIC50?
3.37
